Target: RORgT (Homo sapiens)
Construct: Gal4 (fusion partner); expressed in transfected cells; host or cells: engineered Jurkat cells (Jurkat pEx/Gal/hRORγ CLBD/HYG pG5luc/blast)
Sequence (P51449 267-516): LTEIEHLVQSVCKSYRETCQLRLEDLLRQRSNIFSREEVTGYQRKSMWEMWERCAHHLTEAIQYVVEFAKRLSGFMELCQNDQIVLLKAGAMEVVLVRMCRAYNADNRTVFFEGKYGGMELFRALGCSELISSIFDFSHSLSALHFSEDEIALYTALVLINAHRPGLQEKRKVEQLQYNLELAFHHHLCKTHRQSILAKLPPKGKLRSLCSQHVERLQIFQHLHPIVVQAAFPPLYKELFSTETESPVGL
Experiment: RORgT Gal4 Luciferase Reporter Gene Assay
Type: cell-based
Details: engineered Jurkat cells overexpressing RORgT (LBD or full length) with Gal4 Luc reporter; 18 hours at 37° C.; 40 μM to 0.67 nM; read-out: RORg_GAL4 EC50
Protocol: The compound and the cells were incubated for 18 hours at 37° C. in a cell culture incubator. Cells were then lysed with 15 uL of Steady-Glo Luciferase Assay reagent (Promega EZ550), followed by centrifuging the assay plates at 1500 RPM for 1 minute. Subsequently, the plates were read on the Envision (PerkinElmer). […]
readout: EC50
I'd appreciate it if you wrote the number followed by its unit.

> print(dat)
                                   compound   result
1  COc1ccc(Oc2c(Cl)cc(NC(=O)c3cnccn3)cc2Cl)cc1C(C)C [Example 294]  4520 nM
2  CC(C)c1cc(F)cc(Oc2c(Cl)ccc(C(=O)NC(C)c3ccc(S(C)(=O)=O)cc3)c2Cl)c1 (stereo not shown) [Example 142]    71 nM
3  COc1ccc(Oc2c(Cl)cc(NC(=O)Cc3ccc(S(C)(=O)=O)cc3)cc2Cl)cc1C(C)C [Example 38]    30 nM

API: the following record is the query input.
# returns recorded EC50 (system: RORgT (Homo sapiens)) for COc1ccc(Oc2c(Cl)cc(NC(=O)C[C@H]3CCCN(S(C)(=O)=O)C3)cc2Cl)cc1C(C)C [Example 44]
120 nM
